system: Cell division protein FtsZ (Bacillus subtilis (strain 168))
experiment: Inhibition of FtsZ-mediated cell division in Bacillus subtilis 168 assessed as drug concentration required to produce filamentation
test-readout: log10 of Activity (log10 of the value in µg/mL)

input-smiles: CCCCCCCCCCCOc1cccc(C(N)=O)c1
system: Cell division protein FtsZ (Bacillus subtilis (strain 168))
log10 of Activity: 0.00
--
input-smiles: CCCCCCOc1cccc(C(N)=O)c1
system: Cell division protein FtsZ (Bacillus subtilis (strain 168))
log10 of Activity: 0.90
--
input-smiles: COc1ccc(F)c(C(N)=O)c1Cl
system: Cell division protein FtsZ (Bacillus subtilis (strain 168))
log10 of Activity: 3.31
--
input-smiles: NC(=O)c1cccc(O)c1
system: Cell division protein FtsZ (Bacillus subtilis (strain 168))
log10 of Activity: 3.48
--
input-smiles: CCCCOc1cccc(C(N)=O)c1
system: Cell division protein FtsZ (Bacillus subtilis (strain 168))
log10 of Activity: 1.38
--
input-smiles: COc1ccc(Cl)c(C(N)=O)c1F
system: Cell division protein FtsZ (Bacillus subtilis (strain 168))
log10 of Activity: 2.41
--
input-smiles: COc1cccc(C(N)=O)c1F
system: Cell division protein FtsZ (Bacillus subtilis (strain 168))
log10 of Activity: 2.11
--
input-smiles: CCCCCCCCCCOc1cccc(C(N)=O)c1
system: Cell division protein FtsZ (Bacillus subtilis (strain 168))
log10 of Activity: -0.30
--
input-smiles: CCCCCCCCCOc1cccc(C(N)=O)c1
system: Cell division protein FtsZ (Bacillus subtilis (strain 168))
log10 of Activity: -0.74
--
input-smiles: CCCCCCCCCOc1cccc(C(N)=O)c1F
system: Cell division protein FtsZ (Bacillus subtilis (strain 168))
log10 of Activity: -0.90
--
input-smiles: CCCOc1cccc(C(N)=O)c1
system: Cell division protein FtsZ (Bacillus subtilis (strain 168))
log10 of Activity: 2.57
--
input-smiles: CCCCCCCCCOc1ccc(F)c(C(N)=O)c1F
system: Cell division protein FtsZ (Bacillus subtilis (strain 168))
log10 of Activity: -0.90
--
input-smiles: CCCCCCCOc1cccc(C(N)=O)c1
system: Cell division protein FtsZ (Bacillus subtilis (strain 168))
log10 of Activity: 0.18
--
input-smiles: COc1ccc(F)c(C(N)=O)c1F
system: Cell division protein FtsZ (Bacillus subtilis (strain 168))
log10 of Activity: 2.41

###

system: Cell division protein FtsZ (Staphylococcus aureus) (UniProt P0A031)
Sequence (whole entry): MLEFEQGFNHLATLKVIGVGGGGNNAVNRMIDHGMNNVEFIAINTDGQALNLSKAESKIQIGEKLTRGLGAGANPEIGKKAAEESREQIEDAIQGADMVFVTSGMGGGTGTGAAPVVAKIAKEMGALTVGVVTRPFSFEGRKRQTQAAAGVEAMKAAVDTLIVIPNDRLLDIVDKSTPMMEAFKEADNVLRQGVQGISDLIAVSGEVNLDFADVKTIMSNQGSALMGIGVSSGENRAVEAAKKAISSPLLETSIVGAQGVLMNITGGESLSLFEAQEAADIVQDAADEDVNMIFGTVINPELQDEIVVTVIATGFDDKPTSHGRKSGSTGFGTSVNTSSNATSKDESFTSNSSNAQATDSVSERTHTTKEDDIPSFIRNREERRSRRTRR
experiment: Inhibition of FtsZ-mediated cell division in Staphylococcus aureus ATCC 29213 assessed as drug concentration required to produce ballooning

input-smiles: CCCCCCCCCOc1ccc(F)c(C(N)=O)c1Cl
unit-of-measure: µg/mL
Activity: 1

input-smiles: CCCCCCCCCOc1ccc(F)c(C(N)=O)c1F
unit-of-measure: µg/mL
Activity: 0.25

input-smiles: CCCCCCCCCOc1cccc(C(N)=O)c1F
unit-of-measure: µg/mL
Activity: 0.5

input-smiles: CCCCCCCCCOc1ccc(F)c(C(N)=O)c1
unit-of-measure: µg/mL
Activity: 2

input-smiles: CCCCCCCCCOc1ccc(Cl)c(C(N)=O)c1F
unit-of-measure: µg/mL
Activity: 0.5

meta.source: ChEMBL document CHEMBL1154532
